- target: Bifunctional purine biosynthesis protein ATIC (Homo sapiens)
- procedure-summary: Inhibition of human full length N-terminal His-tagged ATIC expressed in Chinese Hamster MTXRII-OuaR2-4 R2 cells assessed as reduction in THF formation using 10-CHOTHF as substrate by spectrophotometric method
pKi: −log10 of the molar value.
# label = class 1 if pKi >= 5 else class 0

Recorded results for 4 compounds are shown here.
{"columns": ["line-notation", "target", "category-label"],
 "data": [
  ["Nc1nc2sc(CCCCc3cc(C(=O)N[C@@H](CCC(=O)O)C(=O)O)cs3)cc2c(=O)[nH]1", "Bifunctional purine biosynthesis protein ATIC (Homo sapiens)", "class 1"],
  ["Nc1nc2sc(CCCCc3ccc(C(=O)N[C@@H](CCC(=O)O)C(=O)O)o3)cc2c(=O)[nH]1", "Bifunctional purine biosynthesis protein ATIC (Homo sapiens)", "class 0"],
  ["Nc1nc2sc(CCCCc3ccc(C(=O)N[C@@H](CCC(=O)O)C(=O)O)s3)cc2c(=O)[nH]1", "Bifunctional purine biosynthesis protein ATIC (Homo sapiens)", "class 1"],
  ["Nc1nc2sc(CCCc3csc(C(=O)N[C@@H](CCC(=O)O)C(=O)O)c3)cc2c(=O)[nH]1", "Bifunctional purine biosynthesis protein ATIC (Homo sapiens)", "class 0"]
]}

Pending compound:
Task item: Assess whether reported pKi for `Nc1nc2sc(CCCc3ccc(C(=O)N[C@@H](CCC(=O)O)C(=O)O)s3)cc2c(=O)[nH]1` sits at 5 or higher.
Reply: class 0

###

Ki for assorted compounds
- target: Bifunctional purine biosynthesis protein ATIC (Homo sapiens, UniProt P31939)
- Sequence (P31939 whole entry): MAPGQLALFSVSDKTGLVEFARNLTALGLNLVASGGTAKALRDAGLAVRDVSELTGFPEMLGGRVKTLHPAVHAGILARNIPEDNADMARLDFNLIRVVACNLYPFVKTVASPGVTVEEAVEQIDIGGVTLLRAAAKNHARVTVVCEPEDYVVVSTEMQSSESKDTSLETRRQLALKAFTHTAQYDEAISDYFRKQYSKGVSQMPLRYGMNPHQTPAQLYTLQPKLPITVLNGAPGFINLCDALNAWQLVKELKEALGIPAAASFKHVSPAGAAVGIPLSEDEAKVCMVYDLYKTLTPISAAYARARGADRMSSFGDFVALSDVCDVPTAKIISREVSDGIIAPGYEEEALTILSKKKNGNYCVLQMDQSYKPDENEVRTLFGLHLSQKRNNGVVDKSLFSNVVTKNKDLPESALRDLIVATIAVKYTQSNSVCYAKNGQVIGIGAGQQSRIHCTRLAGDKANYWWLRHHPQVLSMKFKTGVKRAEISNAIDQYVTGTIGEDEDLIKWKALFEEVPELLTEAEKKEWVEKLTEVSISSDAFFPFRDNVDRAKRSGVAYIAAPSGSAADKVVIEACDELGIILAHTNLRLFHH
- procedure-summary: Inhibition of human full length N-terminal His-tagged ATIC expressed in Chinese Hamster MTXRII-OuaR2-4 R2 cells assessed as reduction in THF formation using 10-CHOTHF as substrate by spectrophotometric method
A number alone suffices; assume µM.

{"columns": ["line-notation", "scale-unit", "Ki"],
 "data": [
  ["Nc1nc2sc(CCCc3cc(C(=O)N[C@@H](CCC(=O)O)C(=O)O)cs3)cc2c(=O)[nH]1", "µM", 8.37],
  ["Nc1nc2sc(CCCCc3csc(C(=O)N[C@@H](CCC(=O)O)C(=O)O)c3)cc2c(=O)[nH]1", "µM", 8.03]
]}

# next compound below
Reading of Ki for `Nc1nc2sc(CCCCc3ccc(C(=O)N[C@@H](CCC(=O)O)C(=O)O)cc3)cc2c(=O)[nH]1` with Bifunctional purine biosynthesis protein ATIC (Homo sapiens, UniProt P31939): 9.48
